SYSTEM: Rho guanine nucleotide exchange factor 1 (Homo sapiens, UniProt Q92888, F25N)
METHOD SUMMARY: Inhibition of p115 DHPH22 domain (395 to 766 residues) (unknown origin) interaction with GDP-loaded His-tagged RhoA F25N mutant (1 to 180 residues) assessed as reduction in BODIPY-GTP-GDP exchange pretreated for 30 mins followed by RhoA addition by fluorescence based spectrophotometric method
MEASURE: IC50 (µM)
Respond with the bare value in µM.

Query: Return IC50 for the following compound: COc1cc(C)c2c(c1C=O)Oc1c(c(C)c(O)c3c1C(O)OC3=O)OC2=O (stereo unspecified)
Result: 187

* * *

SYSTEM: Rho guanine nucleotide exchange factor 1 (Homo sapiens) (UniProt Q92888)
Sequence (whole entry): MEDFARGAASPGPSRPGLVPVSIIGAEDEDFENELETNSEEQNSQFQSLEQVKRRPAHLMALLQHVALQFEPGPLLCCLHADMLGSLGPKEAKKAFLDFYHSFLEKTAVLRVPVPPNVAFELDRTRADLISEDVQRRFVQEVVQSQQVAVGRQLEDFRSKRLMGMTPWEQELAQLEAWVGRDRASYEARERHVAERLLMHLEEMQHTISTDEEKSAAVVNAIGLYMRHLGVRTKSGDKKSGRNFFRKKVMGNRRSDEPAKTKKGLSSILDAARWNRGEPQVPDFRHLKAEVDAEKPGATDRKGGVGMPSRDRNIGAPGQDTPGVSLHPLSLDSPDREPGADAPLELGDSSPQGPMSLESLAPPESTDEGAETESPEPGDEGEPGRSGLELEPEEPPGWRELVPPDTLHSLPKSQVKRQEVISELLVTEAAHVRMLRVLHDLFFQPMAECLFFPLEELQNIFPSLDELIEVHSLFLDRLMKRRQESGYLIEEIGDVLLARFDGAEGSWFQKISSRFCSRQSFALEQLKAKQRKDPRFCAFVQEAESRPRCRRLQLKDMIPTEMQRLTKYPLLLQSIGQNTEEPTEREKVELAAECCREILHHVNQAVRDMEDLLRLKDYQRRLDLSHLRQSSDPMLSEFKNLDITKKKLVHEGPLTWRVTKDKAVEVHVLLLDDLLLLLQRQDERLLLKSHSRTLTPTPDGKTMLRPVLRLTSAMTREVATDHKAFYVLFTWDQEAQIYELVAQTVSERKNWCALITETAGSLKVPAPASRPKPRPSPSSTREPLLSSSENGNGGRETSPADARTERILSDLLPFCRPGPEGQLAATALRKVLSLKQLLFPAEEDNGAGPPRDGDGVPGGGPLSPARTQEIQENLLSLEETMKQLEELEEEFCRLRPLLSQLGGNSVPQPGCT
METHOD SUMMARY: Inhibition of p115 DHPH22 domain (395 to 766 residues) (unknown origin) interaction with GDP-loaded His-tagged RhoA F25N mutant (1 to 180 residues) assessed as reduction in BODIPY-GTP-GDP exchange at 200 uM pretreated for 30 mins followed by RhoA addition by fluorescence based spectrophotometric method relative to control
The entries below are paired with their reported inhibition.
Respond with the bare value in %.

COc1c(O)cc2c3c(cc4ccccc4c13)NC(=O)C2=O
0

Query: Name the recorded inhibition of CN1CCc2cc3c(c4c2c1cc1ccccc14)OCO3 [DEHYDROROEMERINE] , assay system Rho guanine nucleotide exchange factor 1 (Homo sapiens) (UniProt Q92888).
Result: 21

Query: Name the recorded inhibition of C=CCC/C=C\C#CC#CCCCCCCC1=C[C@@H](C)OC1=O , assay system Rho guanine nucleotide exchange factor 1 (Homo sapiens) (UniProt Q92888).
Result: 0

Query: Name the recorded inhibition of C=CCC/C=C/C#CC#CCCCCCCCC[C@H]1C(=O)O[C@H](C)[C@@H]1OC(C)=O , assay system Rho guanine nucleotide exchange factor 1 (Homo sapiens) (UniProt Q92888).
Result: 0

Query: Name the recorded inhibition of C=CCC/C=C/C#CC#CCCCCCCCC(=O)O , assay system Rho guanine nucleotide exchange factor 1 (Homo sapiens) (UniProt Q92888).
Result: 0

Query: Name the recorded inhibition of C=CCC/C=C/C#CC#CCCCCCC[C@H]1C(=O)O[C@H](C)[C@@H]1OC(C)=O , assay system Rho guanine nucleotide exchange factor 1 (Homo sapiens) (UniProt Q92888).
Result: 10

Query: Name the recorded inhibition of COc1cc(C)c2c(c1C=O)Oc1c(c(C)c(O)c3c1C(O)OC3=O)OC2=O (stereo not given) [STICTIC ACID] , assay system Rho guanine nucleotide exchange factor 1 (Homo sapiens) (UniProt Q92888).
Result: 50.5

Query: Name the recorded inhibition of COc1c(O)cc2c3c(cc4c(O)cccc4c13)NC2=O , assay system Rho guanine nucleotide exchange factor 1 (Homo sapiens) (UniProt Q92888).
Result: 0

Query: Name the recorded inhibition of C=CCC/C=C\C#CC#CCCCCCC[C@H]1C(=O)O[C@H](C)[C@@H]1OC(C)=O , assay system Rho guanine nucleotide exchange factor 1 (Homo sapiens) (UniProt Q92888).
Result: 0

Query: Name the recorded inhibition of COc1cc(C)c2c(c1)Oc1c(cc(OC)cc1C(=O)O)OC2=O , assay system Rho guanine nucleotide exchange factor 1 (Homo sapiens) (UniProt Q92888).
Result: 1

* * *

SYSTEM: Neuroepithelial cell-transforming gene 1 protein (Homo sapiens, UniProt Q7Z628, F25N)
Sequence (Q7Z628 whole entry, looked up, stated change not applied, the tested form may be a part): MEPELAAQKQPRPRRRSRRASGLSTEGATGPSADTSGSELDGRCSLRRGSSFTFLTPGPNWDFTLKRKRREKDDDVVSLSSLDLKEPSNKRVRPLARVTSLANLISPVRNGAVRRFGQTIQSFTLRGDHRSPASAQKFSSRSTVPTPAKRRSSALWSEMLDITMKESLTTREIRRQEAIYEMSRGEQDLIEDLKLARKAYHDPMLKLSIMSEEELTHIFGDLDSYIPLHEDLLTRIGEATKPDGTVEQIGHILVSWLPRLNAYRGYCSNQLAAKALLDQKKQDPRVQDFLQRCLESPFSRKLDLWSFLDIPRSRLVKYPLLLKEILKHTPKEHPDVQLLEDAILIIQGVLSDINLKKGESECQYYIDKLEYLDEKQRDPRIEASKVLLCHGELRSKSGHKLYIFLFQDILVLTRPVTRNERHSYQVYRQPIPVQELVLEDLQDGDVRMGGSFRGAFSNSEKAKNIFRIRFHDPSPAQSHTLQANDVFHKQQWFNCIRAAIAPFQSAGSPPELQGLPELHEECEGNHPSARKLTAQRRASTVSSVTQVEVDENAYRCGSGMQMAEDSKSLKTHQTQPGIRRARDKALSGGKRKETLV
METHOD SUMMARY: Inhibition of Net1 (149 to 501 residues) (unknown origin) interaction with GDP-loaded His-tagged RhoA F25N mutant (1 to 180 residues) assessed as reduction in BODIPY-GTP-GDP exchange pretreated for 30 mins followed by RhoA addition by fluorescence based spectrophotometric method
MEASURE: IC50

Query: Return IC50 for the following compound: CN1CCc2cc3c(c4c2c1cc1ccccc14)OCO3 [DEHYDROROEMERINE]
Result: 120 µM
